# EXPERIMENTAL_CONDITIONS: in sec-butanol, 293.15 K
ENDPOINT: solubility (mole fraction)

COMPOUND	REPORTED_RESULT
O=C1C(CCS(=O)c2ccccc2)C(=O)N(c2ccccc2)N1c1ccccc1 (stereo unspecified)	0.00388

----------
# EXPERIMENTAL_CONDITIONS: in ethanol, 323.15 K

MOLECULE	solubility (mole fraction)
O=C1C(CCS(=O)c2ccccc2)C(=O)N(c2ccccc2)N1c1ccccc1 (stereo unspecified)	0.0137

----------
# EXPERIMENTAL_CONDITIONS: in n-propanol, 313.15 K
ENDPOINT: solubility (mole fraction)

MOLECULE	ENDPOINT	REPORTED_RESULT
O=C1C(CCS(=O)c2ccccc2)C(=O)N(c2ccccc2)N1c1ccccc1 (stereo unspecified)	solubility (mole fraction)	0.0101

----------
# EXPERIMENTAL_CONDITIONS: in n-pentanol, 298.15 K
ENDPOINT: solubility (mole fraction)

COMPOUND	REPORTED_RESULT
O=C1C(CCS(=O)c2ccccc2)C(=O)N(c2ccccc2)N1c1ccccc1 (stereo unspecified)	0.0053

----------
# EXPERIMENTAL_CONDITIONS: in ethanol, 288.15 K

COMPOUND	solubility (mole fraction)
O=C1C(CCS(=O)c2ccccc2)C(=O)N(c2ccccc2)N1c1ccccc1 (stereo unspecified)	0.00211

----------
# EXPERIMENTAL_CONDITIONS: in methanol, 283.15 K
ENDPOINT: solubility (mole fraction)

MOLECULE	REPORTED_RESULT
O=C1C(CCS(=O)c2ccccc2)C(=O)N(c2ccccc2)N1c1ccccc1 (stereo unspecified)	0.0026

----------
# EXPERIMENTAL_CONDITIONS: in methanol, 288.15 K

COMPOUND	solubility (mole fraction)
O=C1C(CCS(=O)c2ccccc2)C(=O)N(c2ccccc2)N1c1ccccc1 (stereo unspecified)	0.00318

----------
# EXPERIMENTAL_CONDITIONS: in acetone, 283.15 K
ENDPOINT: solubility (mole fraction)

COMPOUND	REPORTED_RESULT
O=C1C(CCS(=O)c2ccccc2)C(=O)N(c2ccccc2)N1c1ccccc1 (stereo unspecified)	0.0138

----------
# EXPERIMENTAL_CONDITIONS: in n-butanol, 308.15 K

COMPOUND	solubility (mole fraction)
O=C1C(CCS(=O)c2ccccc2)C(=O)N(c2ccccc2)N1c1ccccc1 (stereo unspecified)	0.00724

----------
# EXPERIMENTAL_CONDITIONS: in n-pentanol, 283.15 K

MOLECULE	solubility (mole fraction)
O=C1C(CCS(=O)c2ccccc2)C(=O)N(c2ccccc2)N1c1ccccc1 (stereo unspecified)	0.00284

----------
# EXPERIMENTAL_CONDITIONS: in acetone, 293.15 K

COMPOUND	solubility (mole fraction)
O=C1C(CCS(=O)c2ccccc2)C(=O)N(c2ccccc2)N1c1ccccc1 (stereo unspecified)	0.02

----------
# EXPERIMENTAL_CONDITIONS: in acetonitrile, 288.15 K

COMPOUND	solubility (mole fraction)
O=C1C(CCS(=O)c2ccccc2)C(=O)N(c2ccccc2)N1c1ccccc1 (stereo unspecified)	0.0155

----------
# EXPERIMENTAL_CONDITIONS: in methanol, 303.15 K

COMPOUND	solubility (mole fraction)
O=C1C(CCS(=O)c2ccccc2)C(=O)N(c2ccccc2)N1c1ccccc1 (stereo unspecified)	0.00679
